Each entry below carries its reported IC50.
TEST_TARGET: hERG channel (Homo sapiens)
Construct: expressed in transfected cells
Sequence (Q12809 whole entry): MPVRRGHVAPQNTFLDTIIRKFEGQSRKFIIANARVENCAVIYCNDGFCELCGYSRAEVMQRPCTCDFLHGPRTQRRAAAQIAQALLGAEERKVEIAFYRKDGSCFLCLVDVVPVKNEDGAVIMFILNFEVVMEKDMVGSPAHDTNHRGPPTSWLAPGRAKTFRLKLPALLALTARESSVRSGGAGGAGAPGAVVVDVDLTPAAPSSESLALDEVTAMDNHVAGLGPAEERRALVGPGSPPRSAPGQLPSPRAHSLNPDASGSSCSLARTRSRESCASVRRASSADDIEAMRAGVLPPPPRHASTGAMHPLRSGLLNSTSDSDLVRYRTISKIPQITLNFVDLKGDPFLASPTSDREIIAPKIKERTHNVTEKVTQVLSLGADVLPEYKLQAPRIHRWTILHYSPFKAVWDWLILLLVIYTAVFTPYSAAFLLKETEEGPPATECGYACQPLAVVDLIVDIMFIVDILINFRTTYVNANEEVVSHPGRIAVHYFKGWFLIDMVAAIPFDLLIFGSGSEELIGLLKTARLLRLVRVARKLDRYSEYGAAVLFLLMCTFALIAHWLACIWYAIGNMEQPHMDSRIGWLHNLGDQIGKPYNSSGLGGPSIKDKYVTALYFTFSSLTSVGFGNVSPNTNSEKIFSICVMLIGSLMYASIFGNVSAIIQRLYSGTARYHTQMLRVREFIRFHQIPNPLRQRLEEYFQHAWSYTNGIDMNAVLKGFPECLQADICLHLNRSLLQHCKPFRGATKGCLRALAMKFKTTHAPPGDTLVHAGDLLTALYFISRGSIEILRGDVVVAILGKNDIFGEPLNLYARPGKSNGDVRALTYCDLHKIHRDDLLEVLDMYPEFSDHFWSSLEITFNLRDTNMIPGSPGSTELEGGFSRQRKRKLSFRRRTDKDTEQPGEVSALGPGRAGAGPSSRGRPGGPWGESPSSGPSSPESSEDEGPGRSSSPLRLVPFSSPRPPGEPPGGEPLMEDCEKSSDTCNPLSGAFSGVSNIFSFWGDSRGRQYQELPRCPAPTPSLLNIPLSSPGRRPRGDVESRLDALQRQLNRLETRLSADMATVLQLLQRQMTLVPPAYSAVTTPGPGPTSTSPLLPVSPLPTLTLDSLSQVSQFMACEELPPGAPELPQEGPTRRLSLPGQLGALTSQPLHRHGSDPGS
ASSAY_NAME: hERG electrophysiology, automated whole-cell patch clamp (Patchliner)
Type: cell-based
EXPERIMENTAL_CONDITIONS: CHO-K1 cells stably expressing hERG; whole cell current inhibition; read-out: hERG IC50

Example molecules with recorded IC50:
> print(dat)
                                   molecule  parameter.measured  endpoint.result
1             CC1CCN(Cc2cc(Cl)c(Cl)cc2O)CC1                IC50          < 30 µM
2           COCC1CCN(Cc2cc(Cl)c(Cl)cc2O)CC1                IC50          < 30 µM
3  Oc1cc(Cl)c(Cl)cc1CN1CCC2(CC1)OCCC2O (stereo not shown)                IC50          < 30 µM

Prompt line: Report IC50 for Oc1cc(Cl)c(Cl)cc1CN1CCC2(CC1)COC2
Response line: < 30 µM

Prompt line: Report IC50 for CC(=O)NCC1(CO)CCN(Cc2cc(Cl)c(Cl)cc2O)CC1
Response line: < 30 µM

Prompt line: Report IC50 for OCC1(c2ccccc2)CCN(Cc2cc(Cl)c(Cl)cc2O)CC1
Response line: < 30 µM

Prompt line: Report IC50 for CC(C)(O)C1CCN(Cc2cc(Cl)c(Cl)cc2O)CC1
Response line: < 30 µM

Prompt line: Report IC50 for OCC1CCCN(Cc2cc(Cl)c(Cl)cc2O)CC1 (stereo not shown)
Response line: < 30 µM

Prompt line: Report IC50 for Oc1cc(Cl)c(Cl)cc1CN1CCC(O)CC1
Response line: < 30 µM

Prompt line: Report IC50 for OCCC1CCN(Cc2cc(Cl)c(Cl)cc2O)CC1
Response line: < 30 µM

Values compiled from patent US20220411367A1.
